Target: MASP-2 CCP2-SP (Homo sapiens (Human))
Sequence (O00187 445-686): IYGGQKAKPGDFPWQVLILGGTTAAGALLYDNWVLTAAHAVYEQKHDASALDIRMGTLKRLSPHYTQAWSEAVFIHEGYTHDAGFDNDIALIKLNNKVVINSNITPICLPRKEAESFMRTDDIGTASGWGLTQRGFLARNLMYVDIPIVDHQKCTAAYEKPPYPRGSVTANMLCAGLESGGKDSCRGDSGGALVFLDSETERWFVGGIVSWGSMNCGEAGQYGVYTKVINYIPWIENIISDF
Sequence (O00187 364-432 partner): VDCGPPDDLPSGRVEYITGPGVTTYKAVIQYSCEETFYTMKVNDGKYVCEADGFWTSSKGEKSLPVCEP
Assay: MASP-2 co-crystallization, X-ray crystallography and structure analysis (H-bonds, van der Waals contacts)
Conditions: Table A7-1; between pharmacophore elements of the bound compound
Could you label it label 1 if measured Pharmacophore torsion angle a(N1, CA1, O2, H4) is -100 or higher, and label 0 otherwise?

>  <compound>
C[C@H](NC(=O)[C@H]1C[C@@H](c2ccccc2)CN1)C(=O)NCc1ccc(C(=N)N)cc1

>  <measured_on>
MASP-2 CCP2-SP (Homo sapiens (Human))

>  <label_value>
label 1

$$$$
>  <compound>
Cc1cnc(NCCc2ccccc2)c(=O)n1CC(=O)NCc1ccc2nc(N)[nH]c2c1

>  <measured_on>
MASP-2 CCP2-SP (Homo sapiens (Human))

>  <label_value>
label 0

$$$$
>  <compound>
C[C@H](NC(=O)[C@H](N)C1Cc2ccccc2C1)C(=O)NCc1ccc2nc(N)[nH]c2c1

>  <measured_on>
MASP-2 CCP2-SP (Homo sapiens (Human))

>  <label_value>
label 0

$$$$
>  <compound>
C[C@H](NC(=O)[C@H]1C[C@H](Cc2ccccc2)CN1)C(=O)NCc1ccc(C(=N)N)cc1.Cl.Cl [1306_2]

>  <measured_on>
MASP-2 CCP2-SP (Homo sapiens (Human))

>  <label_value>
label 1

$$$$
>  <compound>
C[C@H](NC(=O)[C@@H](CCc1ccccc1)NCCCc1ccc(O)cc1)C(=O)NCc1ccc(C(=N)N)cc1.Cl.Cl

>  <measured_on>
MASP-2 CCP2-SP (Homo sapiens (Human))

>  <label_value>
label 0

$$$$
